Data origin, for the record: patent US20180024136A1

# measurement protocol: Spectroscopic properties of CF library (absorbance, emission, quantum yield, extinction coefficient)
# Format: physicochemical
# experimental parameters: 100 μM in ethanol, reference fluorescein
observation type: QY (Φ)

Previously resolved entries follow.
compound: COc1cccc(CNC(=O)c2ccc(-c3c4cc(Cl)c(=O)cc-4oc4cc(O)c(Cl)cc34)cc2)c1 [CF-C4]
QY (Φ): 0.55

compound: CCCCCCCCCCCCN(C)C(=O)c1ccc(-c2c3cc(Cl)c(=O)cc-3oc3cc(O)c(Cl)cc23)cc1 [CF-G2]
QY (Φ): 0.85

compound: O=C(NC1Cc2ccccc2C1)c1ccc(-c2c3cc(Cl)c(=O)cc-3oc3cc(O)c(Cl)cc23)cc1 [CF-D8]
QY (Φ): 0.47

compound: CC1CCC(NC(=O)c2ccc(-c3c4cc(Cl)c(=O)cc-4oc4cc(O)c(Cl)cc34)cc2)CC1 (stereo not drawn) [CF-H5]
QY (Φ): 0.67

1 = CCCC(C)NC(=O)c1ccc(-c2c3cc(Cl)c(=O)cc-3oc3cc(O)c(Cl)cc23)cc1 (stereo not drawn) [CF-G5]
2 = O=C(NC1CCCCC1)c1ccc(-c2c3cc(Cl)c(=O)cc-3oc3cc(O)c(Cl)cc23)cc1 [CF-A9]
*Q* Pick one: 1 or 2 . Which one has the lower reported QY (Φ)? Refer to your chosen entry by its label in the reply.
*A* 1
(1: 0.38, 2: 0.63)
